- Read-out: CFLAR gene, CFLAR (gene 8837)
- assay.name: LTEA_HepaRG_CFLAR: Life Technologies and Expression Analysis (LTEA) Assay for CFLAR gene using HepaRG (AID 2283455)
- test.parameters: mRNA level, 48 h; actives raise or lower the signal
Activity calls are given as the source filed them. How the source made its calls: active means hit-call score of the fitted dose curve at least 0.9, where 1 is the maximum; inactive means score below 0.9.
measure: AC50

1) N#CSCSC#N    75.2 µM (active)
2) CC(=NC#N)N(C)Cc1ccc(Cl)nc1    inactive
3) CN(C)[C@@H]1C(=O)C(C(N)=O)=C(O)[C@@]2(O)C(=O)C3=C(O)c4c(O)cccc4[C@@](C)(O)[C@H]3[C@H](O)[C@@H]12    inactive
4) COP(=O)(NC(C)=O)SC (centres undefined)    inactive

Values were extracted from PubChem BioAssay (EPA / NIEHS).
